# tgt: p38α (Homo sapiens)
# Sequence (Q16539 whole entry): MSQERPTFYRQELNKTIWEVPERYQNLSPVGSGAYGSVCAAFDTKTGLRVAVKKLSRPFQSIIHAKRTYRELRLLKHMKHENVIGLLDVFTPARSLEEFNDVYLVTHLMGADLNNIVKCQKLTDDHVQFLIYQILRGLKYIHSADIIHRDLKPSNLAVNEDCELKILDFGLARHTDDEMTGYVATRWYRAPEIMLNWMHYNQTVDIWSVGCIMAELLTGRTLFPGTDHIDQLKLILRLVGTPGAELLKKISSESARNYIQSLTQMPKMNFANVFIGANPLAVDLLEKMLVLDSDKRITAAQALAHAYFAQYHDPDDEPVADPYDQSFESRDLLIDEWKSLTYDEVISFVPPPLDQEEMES
# experimental_protocol: p38α/MK2 cascade assay
# Format: biochemical
# measurement_parameters: Table 2; same p38α/MK2 cascade assay; 40 minutes preincubation; read-out: p38a/MK2 Cascade 40 min Pre-Incuabtion (% Inhibition): IC50
property_label: IC50 (nM)

I. COC(=O)c1ccc(C)c(-n2c(C)cc(OCc3ccc(F)cc3CNC(=O)Nc3cc(C(C)(C)C)nn3-c3ccc(O)cc3)c(Cl)c2=O)c1
II. Cc1ccc(C(=O)NCCO)cc1-n1c(C)cc(OCc2ccccc2CNC(=O)Nc2cc(C(C)(C)C)nn2-c2cccc(OCCO)c2)c(Cl)c1=O
III. COCCNC(=O)c1ccc(C)c(-n2c(C)cc(OCc3ccccc3CNC(=O)Nc3cc(C(C)(C)C)nn3-c3ccc(Cl)c(O)c3)c(Cl)c2=O)c1
Put the items in sequence by IC50, from largest down. Reply: labels, ordered per the request.
I, II, III

The reported measurements were obtained from patent US20090270350A1.
